Recorded melting point by entry

>>> result("CC(OCCc1ccc([N+](=O)[O-])cc1)OC1C(O)C(CO)OC1n1ccc(=O)[nH]c1=O (stereo not given)")
"162 °C"
>>> result("CCOC(=O)Nc1c(Cl)cc2nc(O)c(O)nc2c1[N+](=O)[O-]")
"> 300 °C"
>>> result("COC(=O)C1c2ccc(OC)cc2SC1c1ccc(OC)cc1 (stereo not given)")
"98.3 to 99.8 °C"
>>> result("CCOC(=O)CC1NC(=O)c2ccccc21 (stereo not given)")
"116 to 118 °C"

Let's switch to this compound now.
Fill blank: measured melting point of the compound CC(=O)NCCCCOC1c2ccccc2C(=O)N1c1ccc2ccc(Cl)nc2n1 (stereo not given) is ____.
120 °C

###

Entries and their melting point values follow.

Please review the following examples before continuing.
>>> result("O=C(O)CCc1cn(Cc2ccc(OCc3cncc(-c4ccccc4)c3)cc2)nc1-c1ccccc1")
"161 to 162 °C"
>>> result("c1ncn(Cc2ccc3c(c2)Cc2c(-c4ccsc4)n[nH]c2-3)n1")
"252 to 257 °C"
>>> result("CC(C)=CCCC(C)C1CCC2C3CC(O)C4CC(O)CCC4(C)C3CCC12C (centres undefined)")
"188 to 190 °C"

# evaluate next
Entry Cn1c(COc2ccc(CC3SC(=O)NC3=O)cc2)nc2ccc(Oc3cccc(NC(=O)Nc4ccccc4C(F)(F)F)c3)cc21 (centres undefined) : reported melting point = ?
161 to 164 °C

###

quantity.name: melting point

Known results for compounds:
>>> result("Brc1nnc2n1C=Cc1ccccc1C2")
"169 to 170 °C"
>>> result("Cc1c(F)cccc1Cc1c(-c2ccccc2)c2ccccn2c1C(=O)N1CCN(C(=O)OC(C)(C)C)[C@@H](CCO[Si](C)(C)C(C)(C)C)C1")
"70 °C"
>>> result("COC(=O)c1c(C#N)ccc(NC(=NC#N)Nc2ccccc2Br)c1O")
"210 to 211 °C"
>>> result("COc1ccc(OC)c(C2(O)CCCCC2C(c2ccccc2)N(C)C)c1 (centres undefined)")
"> 240 °C"

Which melting point is listed for O=C(O)COc1ccc(-c2nc3ncccc3[nH]2)c(O)c1 ?
235 °C

Param item: N#Cc1cccc(C2C(=O)c3ccccc3C2=O)c1
179 to 182 °C

Can you handle COc1nccnc1OCC(O)CN1CCC(N2CCc3ccccc3C2=O)CC1 (centres undefined) next?
167 to 169 °C

Try this compound too: CC(C)(C)c1ccc2oc(-c3ccc(C=Cc4ccc(-n5ncc(-c6ccccc6)n5)cc4)cc3)nc2c1
230 to 231 °C

Again, but for COc1cc(OCC(CO)CO)c(C=CC(=O)c2ccc(S(=O)(=O)Nc3cc(C)on3)cc2)cc1-c1cccs1
165 to 166 °C

###

Reported melting point values are given for each entry in this list.

Worked cases, answers included:
>>> result("CSc1nc(Cl)c(-c2ccc(C)cc2)c(NS(=O)(=O)c2ccc(C(C)(C)C)cc2)n1")
"178 to 182 °C"
>>> result("COCCSNS(=O)(=O)c1ccccc1")
"119 to 121 °C"
>>> result("COc1cc(-c2ccc(Cl)cc2)cc2oc(=O)c(C)c(C)c12")
"148 °C"
>>> result("Cc1ccc(-c2c([N+](=O)[O-])oc3ccccc23)cc1C")
"125 to 133 °C"

Please look up its melting point: CS(=O)(=O)Cc1cccc(C(F)(F)F)c1[N+](=O)[O-]
110 to 113 °C

###

quantity.name: melting point

Example entries and their recorded answers appear below.
>>> result("Cc1nc(-c2ccc(N)c(Br)c2)c[nH]1")
"34 to 36 °C"
>>> result("Cc1nc(CCn2cnc3c2c(=O)[nH]c(=O)n3C)no1")
"258 to 260 °C"
>>> result("CC(=O)[C@H]1[C@H](C(=O)O)C1(C)C (relative stereo)")
"111 °C"
>>> result("Cn1cc(C2=C(c3cn(C4CCN(CC(F)(F)C(F)(F)C(F)(F)F)CC4)c4ccccc34)C(=O)NC2=O)c2ccccc21")
"231 to 234 °C"

Turning now to a further record.
Sample N#Cc1cc(C#N)cc(Oc2nccc(Oc3cc(Cl)cc(Cl)c3)n2)c1 — what was its melting point?
156 °C

###

quantity.name: melting point

Solved cases below.
>>> result("O=C1OC(=O)c2cc3c(cc21)OCO3")
"189 to 191 °C"
>>> result("COc1ccc(-c2ccc(C(C)=O)cc2[N+](=O)[O-])c(OC)c1")
"129 to 131 °C"
>>> result("COc1ccc(Nc2nc(NC3CCCCCC3)nc(Oc3ccc(C=O)cc3)n2)cc1Cl")
"218 to 220 °C"

Name the reported melting point value associated with the compound CCn1cc(C(=O)O)c(=O)c2cc(F)c(N3Cc4ccc(N)cc4C3)cc21
> 300 °C

###

Each entry below carries its recorded melting point.

>>> result("S=c1c2c(c3cccnc3n1-c1ccccc1)OCC2")
"242 to 244 °C"

I'd like to know its melting point. The compound in question is COc1cc(OS(=O)(=O)c2ccc(N3CCN(C)C3=O)cc2)cc(OC)c1OC
160 to 162 °C

And COc1cc(CC(C)=O)ccc1OCCCN1CCC(c2noc3cc(F)ccc23)CC1 ?
118 to 119 °C

Here is the next compound: N#CCc1ccc(C(=O)c2ccc(Cl)cc2)n1Cc1ccccc1
104 to 106 °C

Query C=CCn1c(=O)c(C(=O)OCC)c(N2CCCC2)c2ccc(C)nc21 next
97 to 103 °C

Please answer likewise for COc1ccc(S(=O)(=O)N2Cc3ccccc3N(C(=O)c3cccc(C(F)(F)F)c3)CC2C(=O)O)cc1 (centres undefined)
105 to 110 °C

Now consider CCCCCCc1ccc(CCCCC(NC(C)=O)(C(=O)OCC)C(=O)OCC)cc1 .
57 to 58 °C

Next compound up: COc1ccc(S(=O)(=O)NC(C)c2ccccc2-c2cc(F)ccc2F)cc1 (centres undefined)
143 to 144 °C

Item: COc1ccc2cc(C(C)CC(C)=O)cc(F)c2c1 (centres undefined)
38 to 39 °C

###

quantity.name: melting point

# example entries with known answers
>>> result("Cn1cc(C(=O)O)c(=O)c2cc3cc(F)c(N4CCN(O)CC4)cc3nc21")
"290 °C"
>>> result("COC(=O)COc1ccc(Nc2cc(Nc3ccc(F)c(Cl)c3)ncn2)cc1")
"191 to 193 °C"
>>> result("Nc1nc2c(s1)CCN(CC=Cc1ccc(Cl)cc1)CC2")
"145 to 150 °C"

May I ask what melting point has been recorded for COc1ccc2nc(-n3nc(CCCO)cc3-c3ccc(Cl)cc3)sc2c1 ?
123 to 125 °C

And the next one, CC(C)(O)CNC(=O)CC1CN=C(c2cc3cc(Oc4ccc(S(C)(=O)=O)nc4)cc(OC4CCOCC4)c3[nH]2)S1 (stereo not given) ?
195 to 196 °C

Also, COC(=O)c1cc(N)c(F)c(Br)n1 please.
187 to 190 °C

###

quantity.name: melting point

Example results:
>>> result("O=[N+]([O-])c1cc(F)ccc1Sc1ccccc1")
"66 to 67 °C"
>>> result("Cc1nn(-c2ccc(F)cc2)cc1C(=O)Nc1ccc(OCC(C)(C)C)c(C#N)c1")
"181 to 182 °C"
>>> result("O=C1c2ccccc2C(=O)N1CCSCc1nccc(NC(=S)NCC(F)(F)F)n1")
"178 to 179 °C"
>>> result("CS(=O)(=O)Nc1cc(N)ccc1Oc1ccccc1")
"112 to 114 °C"

// next entry
What does the record list as melting point for Cc1cc(CN(Cc2ccsc2)c2sc(-c3ccc(C(F)(F)F)cc3)nc2C)cc(C)c1OC(C)(C)C(=O)O ?
90 to 100 °C

###

Items are presented alongside their recorded melting point.

>>> result("CCOC(=O)c1cnc2c(OC)nc(OC)cc2c1Cl")
"200 to 210 °C"
>>> result("CNC(=O)c1cc(Oc2ccc(NC(=O)Nc3ccc(Br)c(C(F)(F)F)c3)cc2)ccn1")
"203 to 205 °C"
>>> result("N#Cc1ccc2[nH]cc(C3=CCN(CC4COc5cccnc5O4)CC3)c2c1 (stereo not given)")
"165 °C"
>>> result("CS(=O)(=O)c1ccc(-c2[nH]c3ccc(F)cc3c2-c2ccccc2)cc1")
"243 to 245 °C"
>>> result("COc1cc2occ(-c3ccccc3)c(=O)c2c(Cl)c1Cl")
"216 to 218 °C"
>>> result("CCCCCOc1ccc(CC(C)C(=O)Oc2ccc(-c3ccc(CCC)cc3)cc2)cc1 (stereo not given)")
"84 to 84.5 °C"

// melting point lookup, key: CS(=O)(=O)N(Cc1cccnc1)c1ccccc1F
120 °C

Please answer likewise for CCc1cc(C(=O)c2ccccc2Cl)c(-n2c(CNC(=O)c3cc4ccccc4n3CC(=O)O)nnc2C(F)(F)F)s1
200 to 203 °C

And the next one, C=CCNC(=O)N1CCC1c1ccccc1F (stereo not given) ?
119 to 120 °C

Next compound up: c1ccc(CNn2cnnc2-c2ccc(CN3CCCCCC3)s2)cc1
79 to 81 °C
